Catalogue of Primary assay EC50 (cAMP), n2 values
- MEASUREMENT_TARGET: T1, glucose-dependent insulinotropic peptide (gastric inhibitory polypeptide) receptor (GIPR), primary cAMP assay (human, UniProt P48546 22-466)
- T1 sequence (looked up): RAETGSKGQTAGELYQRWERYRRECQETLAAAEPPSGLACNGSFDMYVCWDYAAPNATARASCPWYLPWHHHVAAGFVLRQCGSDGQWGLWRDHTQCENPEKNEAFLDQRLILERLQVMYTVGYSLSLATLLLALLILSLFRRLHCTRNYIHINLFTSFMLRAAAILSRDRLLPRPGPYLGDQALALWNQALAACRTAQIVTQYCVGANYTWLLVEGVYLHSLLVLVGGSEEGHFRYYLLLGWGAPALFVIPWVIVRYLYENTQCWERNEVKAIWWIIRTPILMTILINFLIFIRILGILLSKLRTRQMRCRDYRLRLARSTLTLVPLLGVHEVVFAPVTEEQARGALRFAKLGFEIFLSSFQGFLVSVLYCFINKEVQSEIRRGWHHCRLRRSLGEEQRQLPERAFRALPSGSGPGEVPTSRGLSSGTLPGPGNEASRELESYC
- PROCEDURE_DETAILS: cell-based or functional assay
Starred links: 1 amine or outer side, 2 acyl side, 3 side chain; linkers in the order of their positions; H or OH if unused. Non-standard residues stand in square brackets, D forms with d. Groups on a side chain read outwards from the residue. Primed or numbered codes have the meaning given here. No end group written: not given here. *: point of attachment. γGlu = O=C(O)[C@H](CCC(=O)[*:2])N[*:1]; Palmitoyl = CCCCCCCCCCCCCCCC(=O)*; αMeF = C[C@](N)(Cc1ccccc1)C(=O)O; αMeK = C[C@](N)(CCCCN)C(=O)O; Lauroyl = CCCCCCCCCCCC(=O)*; αMeS = C[C@](N)(CO)C(=O)O; Nle = CCCC[C@H](N)C(=O)O; PEG2′ = not defined here; Aib = CC(C)(N)C(=O)O
State just the number; it will be interpreted in nM.

Example cases with answers are listed next.
BINDER	MEASURE_UNIT	Primary assay EC50 (cAMP), n2
H[Aib]EGS[αMeF]TSDVSK([PEG2′-PEG2′-γGlu-Lauroyl])YLEGEAA[αMeK]EFIAK([PEG2′-PEG2′-γGlu-Lauroyl])VVEGG-NH2 [SEQ ID NO: 252]	nM	22.7
H[Aib]EGS[αMeF]TSDV[αMeS]SK([PEG2′-PEG2′-γGlu-Lauroyl])LEGEAA[αMeK]E[Nle]IAK([PEG2′-PEG2′-γGlu-Lauroyl])VVEGG-NH2 [SEQ ID NO: 407]	nM	21.5
H[Aib]EGS[αMeF]TSDK([PEG2′-PEG2′-γGlu-Palmitoyl])SSYLEGEAA[αMeK]EFIK([PEG2′-PEG2′-γGlu-Palmitoyl])WVVEGG-NH2 [SEQ ID NO: 259]	nM	21.4

Now turn to the next binder.
The recorded Primary assay EC50 (cAMP), n2 for H[Aib]EGS[αMeF]TSDVSK([PEG2′-PEG2′-γGlu-Palmitoyl])YLEGEAA[αMeK]EFIK([PEG2′-PEG2′-γGlu-Palmitoyl])WVVEGG-NH2 [SEQ ID NO: 251] is 21.3
